Can you tell me IC50 for the items I'm about to list?
testedOn: Histone deacetylase
testDetails: Inhibition of HDAC in human HeLa cell nuclear extract using Boc-Lys(Ac)-AMC as substrate preincubated for 15 mins followed by substrate addition measured after 60 mins by fluorescence-based assay
Answers are plain numbers, in µM.

Below, 4 molecules whose answers are already recorded.
O=C(NCCCCCCS)c1cc(-c2cccnc2)n[nH]1; 0.015
O=C(NCCCCCCS)c1cc(-c2cccc3ccccc23)n[nH]1; 0.608
O=C(NCCCCCCS)c1ccn[nH]1; 0.081
O=C(NCCCCCCS)c1cc(-c2ccc3ccccc3c2)n[nH]1; 0.102

State the recorded IC50 for every item in the following list.
1. O=C(NCCCCCCS)c1cc(-c2ccncc2)n[nH]1
2. O=C(NCCCCCCS)c1cc(-c2ccc(-c3ccccc3)cc2)n[nH]1

1. 0.008
2. 0.043

###

Test system: A549
testDetails: cells
Assay type: functional
condition: Homo sapiens, A549, 96 h
Description: Growth inhibition of human A549 cells after 96 hrs by MTT assay
Can you tell me GI50 for the items I'm about to list?

CSCCCCCCNC(=O)c1cc(-c2ccncc2)n[nH]1; > 50 µM
CCC(=O)SCCCCCCNC(=O)c1cc(-c2ccncc2)n[nH]1; > 50 µM
O=C(NCCCCCCS)c1cc(-c2cccnc2)n[nH]1; 19.3 µM

State the recorded GI50 for every item in the following list.
1. CCCC(=O)SCCCCCCNC(=O)c1cc(-c2ccncc2)n[nH]1
2. O=C(NCCCCCCSSCCCCCCNC(=O)c1cc(-c2cccnc2)n[nH]1)c1cc(-c2cccnc2)n[nH]1

1. 15.1 µM
2. 5.31 µM
